system: CEM cells HIV-1 protection, formazan growth assay; test: NCI AIDS Antiviral Assay; conditions: measured here: growth of uninfected CEM cells
log10(IC50) values, listed per item
measurement-label: log10(IC50) (log10 of the value in µM)

[
  {
    "compound": "CC(=O)c1cccc(NC(=O)C(=O)c2c(O)c3ccccc3oc2=O)c1",
    "log10(IC50)": 2.58
  },
  {
    "compound": "CNC(=O)N(C)COC",
    "log10(IC50)": 2.06
  },
  {
    "compound": "CCOC(=O)CCSS(=O)(=O)c1ccccc1",
    "log10(IC50)": 1.55
  },
  {
    "compound": "Cc1oc2ccccc2c(=O)c1CN1CCN(c2ccccn2)CC1",
    "log10(IC50)": 2.11
  },
  {
    "compound": "CC(=O)O[C@H]1CC[C@@]2(C)C(=CC[C@H]3[C@@H]4CC[C@H]([C@H](C)C(=O)OCC5OC(n6cc(C)c(=O)[nH]c6=O)CC5N=[N+]=[N-])[C@@]4(C)CC[C@@H]32)C1 (stereo partly drawn)",
    "log10(IC50)": 0.68
  },
  {
    "compound": "N#Cc1c(N)c2c(c(-c3ccccc3)c1-c1ccccc1)C(=O)N(N)C2=O",
    "log10(IC50)": 2.07
  },
  {
    "compound": "CC(C)=CC1CC(C)C2(CCC3(C)CC4C5/C(=C\\CC32)C(=O)OC5CC4(C)O)O1 (stereo not drawn)",
    "log10(IC50)": -0.40
  },
  {
    "compound": "N#C/C(C(=S)NCc1ccccc1)=C(/N)N1CCCC1",
    "log10(IC50)": 2.17
  },
  {
    "compound": "O=C1Cc2ccccc2N1C1c2ccccc2C=Cc2ccccc21",
    "log10(IC50)": 1.33
  },
  {
    "compound": "CCCc1cc(=O)oc2c3c(cc(OC)c12)O[C@H](C)C(C)[C@H]3O (stereo partly drawn)",
    "log10(IC50)": 1.71
  },
  {
    "compound": "O=c1[nH]c(=O)n(COCCOCc2ccccc2)cc1Nc1ccccc1",
    "log10(IC50)": 1.75
  },
  {
    "compound": "CNc1nnc(CCCCCCCCc2nnc(NC)o2)o1",
    "log10(IC50)": 1.06
  },
  {
    "compound": "O=c1c(-c2ccc(O)c(O)c2)coc2cc(O)cc(O)c12",
    "log10(IC50)": 1.20
  },
  {
    "compound": "O=C1c2cscc2C(=O)c2c(OCc3ccccc3)ccc(OCc3ccccc3)c21",
    "log10(IC50)": 0.62
  }
]

* * *

tested on: CEM cells HIV-1 protection, formazan growth assay; assay: NCI AIDS Antiviral Assay;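 active means compounds giving half or more protection of infected cells from virus-caused growth loss, again on retest; inactive means the rest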
Classes used: active, inactive

[
  {
    "compound": "Cc1cn(C2C=CC(COP(=O)(OCC(=O)C(C)(C)C)OCC(=O)C(C)(C)C)O2)c(=O)[nH]c1=O (stereo unspecified)",
    "answer-label": "active"
  },
  {
    "compound": "CN=c1sc2c(n1C)C(=O)c1ccccc1C2=O",
    "answer-label": "inactive"
  },
  {
    "compound": "CCNC(=S)N/N=C/c1cc(OC)ccc1O",
    "answer-label": "inactive"
  },
  {
    "compound": "COc1c2c(c3c(c1C1OC(C)[C@@H](C)O1)CC(C)(C)O3)C(=O)c1ccccc1C2=O (stereo partly specified)",
    "answer-label": "inactive"
  },
  {
    "compound": "Nc1ccccc1S(=O)c1ccccc1 (stereo unspecified)",
    "answer-label": "inactive"
  },
  {
    "compound": "CCOC(=O)c1cc2c3c(cc(OC)c2[nH]1)N(C(=O)OCC)CC3",
    "answer-label": "inactive"
  },
  {
    "compound": "Cc1ccc(/C=C/C(=O)c2sc(-c3cccnc3)nc2C)cc1",
    "answer-label": "inactive"
  },
  {
    "compound": "CC(=O)C(C)(CCC(=O)O)CCC(=O)O",
    "answer-label": "inactive"
  },
  {
    "compound": "Clc1cc2nc(C3CCCCO3)[nH]c2cc1Cl (stereo unspecified)",
    "answer-label": "inactive"
  },
  {
    "compound": "COC(=O)Cc1c([C@H]2[C@H](CC(=O)OC)c3ccccc3N2S(=O)(=O)c2ccc(C)cc2)[nH]c2ccccc12",
    "answer-label": "inactive"
  },
  {
    "compound": "CCP(=O)(CC)C(Cl)(Cl)C(O)C(C)(C)C (stereo unspecified)",
    "answer-label": "inactive"
  }
]

* * *

tested on: CEM cells HIV-1 protection, formazan growth assay; experiment: NCI AIDS Antiviral Assay; details: measured here: growth of uninfected CEM cells
// reported log10(IC50) for each item listed
measurement-label: log10(IC50) (log10 of the value in µM)

[
  {
    "compound": "O=C(OCCN1CCCC12CCCCC2)C(c1ccccc1)C1C=CCC1 (configuration not stated)",
    "test-target": "CEM cells HIV-1 protection, formazan growth assay",
    "log10(IC50)": 1.39
  },
  {
    "compound": "O=C1C=Cc2c(Cl)sc(Cl)c21",
    "test-target": "CEM cells HIV-1 protection, formazan growth assay",
    "log10(IC50)": -0.10
  },
  {
    "compound": "NC(=Nc1ccc(O)cc1)S(=O)O",
    "test-target": "CEM cells HIV-1 protection, formazan growth assay",
    "log10(IC50)": 2.08
  },
  {
    "compound": "CC(=O)NS(=O)(=O)c1ccc(NC(=O)c2ccccc2SC(=O)c2ccccc2)cc1",
    "test-target": "CEM cells HIV-1 protection, formazan growth assay",
    "log10(IC50)": 2.07
  },
  {
    "compound": "CCCCOP(=O)(OCCCC)/C(C#N)=C/c1ccco1",
    "test-target": "CEM cells HIV-1 protection, formazan growth assay",
    "log10(IC50)": 2.25
  },
  {
    "compound": "CCCCP(CCCC)(CCCC)=C(C(=O)OC)C(C(=O)OC)=C1SC(C(=O)OC)=C(C(=O)OC)S1",
    "test-target": "CEM cells HIV-1 protection, formazan growth assay",
    "log10(IC50)": 1.52
  },
  {
    "compound": "O=C1CCC2=NCc3c(ccc4ccccc34)N12",
    "test-target": "CEM cells HIV-1 protection, formazan growth assay",
    "log10(IC50)": 2.54
  },
  {
    "compound": "CC(C)=C1C=C2CC[C@@H]3[C@](C)(CCC[C@@]3(C)C(=O)O)[C@H]2CC1",
    "test-target": "CEM cells HIV-1 protection, formazan growth assay",
    "log10(IC50)": 2.02
  },
  {
    "compound": "Cn1c(-c2cccs2)cc(-c2cccs2)c1-c1cccs1",
    "test-target": "CEM cells HIV-1 protection, formazan growth assay",
    "log10(IC50)": 1.53
  },
  {
    "compound": "Cc1nn(C(=O)c2ccc(Cl)cc2)c2c1C(c1ccc([N+](=O)[O-])cc1)SC(N)=N2 (configuration not stated)",
    "test-target": "CEM cells HIV-1 protection, formazan growth assay",
    "log10(IC50)": 1.99
  },
  {
    "compound": "C=CCC1C(=O)Nc2cccc3ncn(c23)C1=O (configuration not stated)",
    "test-target": "CEM cells HIV-1 protection, formazan growth assay",
    "log10(IC50)": 2.27
  }
]
